Target: thrombin (Homo sapiens)
Construct: purchased Sigma Chem. Co. T-7009
Assay: Inhibition of thrombin
Format: biochemical
Conditions: Table III; 10 uM
Parameter Measured: Thrombin % I @ 10 uM (%)

# Compound, Unit, Readout Number
records = [
    ("CS(=O)(=O)N1Cc2ccccc2CC1C(=O)N[C@H](C=O)Cc1ccccc1 (single isomer, unassigned) [Compound 96]", "%", 0),
]

1. CS(=O)(=O)NC(CCSCc1ccccc1)C(=O)N[C@H](C=O)Cc1ccccc1 (single isomer, unassigned) [Compound 108]
2. CS(=O)(=O)N1Cc2ccccc2CC1C(=O)N[C@H](C=O)Cc1ccccc1 (single isomer, unassigned) [Compound 95]
3. CS(=O)(=O)NC(CCSCc1ccccc1)C(=O)N[C@H](C=O)Cc1ccccc1 (single isomer, unassigned) [Compound 107]
Q: // sort entries: Thrombin % I @ 10 uM, high to low Dear reader, please state the labels in the requested order.
Ans: 3, 2, 1
